Listed below: IC50 values for each entry.
System: NF-kB reporter in Jurkat cells
Experiment: NF-kB reporter assay in Jurkat cells stimulated with aCD3/aCD28/PMA
Assay type: cell-based
Conditions: Homo sapiens; Jurkat cells, 1 hr compound pre-incubation, aCD3/aCD28/PMA stimulation 4 hr, One-Glo readout; read-out: NF-kB Reporter Assay IC50
experimentalReadout: IC50

[[record]]
molecule = "Cn1ncc2cccc(NS(=O)(=O)c3cnn(-c4cc(N5CCC6(CC6)C5)ccn4)c3)c21"
endpointvalue = "< 400 nM"

[[record]]
molecule = "Cn1ncc2cccc(NS(=O)(=O)c3cnn(-c4cc(N5CCCC5=O)ccn4)c3)c21"
endpointvalue = "< 400 nM"

[[record]]
molecule = "COC[C@@H](OC)c1ccnc(-n2cc(S(=O)(=O)Nc3cccc4cnn(C)c34)cn2)c1"
endpointvalue = "< 400 nM"

[[record]]
molecule = "Cc1ccc2cnn(C)c2c1NS(=O)(=O)c1cnn(-c2cc(C(F)(F)F)ccn2)c1"
endpointvalue = "< 400 nM"

[[record]]
molecule = "COc1ccc2cnn(C)c2c1NS(=O)(=O)c1cnn(-c2cc(N3CC(C)(OC)C3)ccn2)c1"
endpointvalue = "400 to 1000 nM"

[[record]]
molecule = "CC[C@@](C)(OC)c1ccnc(-n2cc(S(=O)(=O)Nc3cccc4cnn(C)c34)cn2)c1 (stereo in doubt)"
endpointvalue = "< 400 nM"

[[record]]
molecule = "Cn1ncc2cccc(NS(=O)(=O)c3cnn(-c4cc(NC(C)(C)CO)ccn4)c3)c21"
endpointvalue = "< 400 nM"

[[record]]
molecule = "C[C@H](O)c1ccnc(-n2cc(S(=O)(=O)Nc3cccc4cnn(C)c34)cn2)c1"
endpointvalue = "< 400 nM"

[[record]]
molecule = "COc1ccc2cnn(C)c2c1NS(=O)(=O)c1cnn(-c2cc(N3CC4CC3C4)ccn2)c1"
endpointvalue = "< 400 nM"

[[record]]
molecule = "COc1ccc2cnn(C)c2c1NS(=O)(=O)c1cnn(-c2cnn3c2CN(C)CC3)c1"
endpointvalue = "> 2500 nM"

[[record]]
molecule = "Cn1ncc2cccc(NS(=O)(=O)c3cnn(-c4cc(N5CC6(CC6)C5)ccn4)c3)c21"
endpointvalue = "< 400 nM"

[[record]]
molecule = "Cn1ncc2cccc(NS(=O)(=O)c3cnn(-c4cc(N5CC6CC5C6)ccn4)c3)c21"
endpointvalue = "< 400 nM"

[[record]]
molecule = "Cn1ncc2cccc(NS(=O)(=O)c3cnn(-c4cc(N5CC(F)C5)ccn4)c3)c21"
endpointvalue = "< 400 nM"

[[record]]
molecule = "COc1ccc2cnn(C)c2c1NS(=O)(=O)c1cnn(-c2cc(C(C)OC)ccn2)c1 (single isomer, unassigned)"
endpointvalue = "< 400 nM"

[[record]]
molecule = "COc1ccc2cnn(C)c2c1NS(=O)(=O)c1cnn(-c2cc(C3(F)CC(F)C3)ccn2)c1 (single isomer, unassigned)"
endpointvalue = "< 400 nM"

[[record]]
molecule = "Cn1ncc2cccc(NS(=O)(=O)c3cnn(-c4cc(C5(O)CCCC5)ccn4)c3)c21"
endpointvalue = "< 400 nM"

[[record]]
molecule = "Cn1ncc2cccc(NS(=O)(=O)c3cnn(-c4cnc5n4CCOC5)c3)c21"
endpointvalue = "> 2500 nM"

[[record]]
molecule = "Cn1ncc2cccc(NS(=O)(=O)c3cnn(-c4cc(N5C(=O)OCC5(C)C)ccn4)c3)c21"
endpointvalue = "< 400 nM"

[[record]]
molecule = "COC1CC(c2ccnc(-n3cc(S(=O)(=O)Nc4cccc5cnn(C)c45)cn3)c2)C1 (stereo not drawn)"
endpointvalue = "< 400 nM"

[[record]]
molecule = "C=CC(F)c1ccnc(-n2cc(S(=O)(=O)Nc3c(OC)ccc4cnn(C)c34)cn2)c1 (stereo not drawn)"
endpointvalue = "1000 to 2500 nM"

[[record]]
molecule = "Cn1nc(F)c2cccc(NS(=O)(=O)c3cnn(-c4cc(C(C)(F)F)ccn4)c3)c21"
endpointvalue = "< 400 nM"

[[record]]
molecule = "CN1C[C@H](n2cc(S(=O)(=O)Nc3cccc4cnn(C)c34)cn2)CCC1=O"
endpointvalue = "> 2500 nM"

[[record]]
molecule = "COc1ncc2cnn(C)c2c1NS(=O)(=O)c1cnn(-c2cc(N3CC4CC(C4)C3)ccn2)c1"
endpointvalue = "< 400 nM"

[[record]]
molecule = "COc1ccc2cnn(C)c2c1NS(=O)(=O)c1cnn(-c2cc(C3CC3)ccn2)c1"
endpointvalue = "< 400 nM"

[[record]]
molecule = "COc1ccc2cnn(C)c2c1NS(=O)(=O)c1cnn(-c2cc(N3CC4(CC4)C3)ccn2)c1"
endpointvalue = "< 400 nM"

[[record]]
molecule = "COc1ncc2cnn(C)c2c1NS(=O)(=O)c1cnn(-c2cc(N3CC4CC3C4)ccn2)c1"
endpointvalue = "< 400 nM"

[[record]]
molecule = "Cn1ncc2cccc(NS(=O)(=O)c3cnn(-c4cc(N5CCC(F)(F)C5)ccn4)c3)c21"
endpointvalue = "< 400 nM"

[[record]]
molecule = "COc1ccc2cnn(C)c2c1NS(=O)(=O)c1cnn(-c2cc(C(C)(C)OC)ccn2)c1"
endpointvalue = "< 400 nM"

[[record]]
molecule = "Cn1ncc2cccc(NS(=O)(=O)c3cnn(-c4cc(C(F)(F)F)ccn4)c3)c21"
endpointvalue = "< 400 nM"

[[record]]
molecule = "COc1ncc2cnn(C)c2c1NS(=O)(=O)c1cnn(-c2cc(C(C)(C)OC)ccn2)c1"
endpointvalue = "< 400 nM"

